Listed below: change in vivo at 50 mg/kg values for each entry.
assay: APCC in vivo screen: blood cholesterol in male Sprague-Dawley rats on high fat, high cholesterol diet with 0.5% cholic acid; conditions: Rattus norvegicus, single dose 50 mg/kg (*), high fat high cholesterol diet overnight, read-out: % Change (mg/dl) (cholesterol)
measure: change in vivo at 50 mg/kg (%)

INSERT INTO results (smiles_code, measure, recorded_value) VALUES
  ('CC(C)(C)c1cccc(C(C)(C)C)c1OC(=O)NS(=O)(=O)NCC(c1ccccc1)c1ccccc1', 'change in vivo at 50 mg/kg', -32),
  ('CC(C)c1cccc(C(C)C)c1OC(=O)NS(=O)(=O)Nc1ccccc1', 'change in vivo at 50 mg/kg', -55),
  ('CC(C)(C)c1cccc(C(C)(C)C)c1OC(=O)NS(=O)(=O)NC(c1ccccc1)c1ccccc1', 'change in vivo at 50 mg/kg', -35),
  ('Cc1cc(C(C)(C)C)c(OC(=O)NS(=O)(=O)NC(c2ccccc2)c2ccccc2)c(C(C)(C)C)c1', 'change in vivo at 50 mg/kg', -42);
